# METHOD_SUMMARY: refractive index (Na D-line) (dimensionless)
# STUDY_CONDITIONS: 303.15 K; 101.33 kPa; Liquid; Standard Abbe refractometry
Entries and their measured refractive index follow.
Could you keep your reply to the number by itself?

Sample answers from the record:
- MOLECULE: "O=C([O-])C(F)(F)F.[NH3+]CCCO [3-hydroxypropylammonium trifluoroacetate]"
  MEASUREMENT_NAME: "refractive index"
  REPORTED_MEASUREMENT: 1.409
- MOLECULE: "CC(=O)[O-].[NH3+]CCCO [3-hydroxypropylammonium acetate]"
  MEASUREMENT_NAME: "refractive index"
  REPORTED_MEASUREMENT: 1.464
- MOLECULE: "CCC[NH3+].O=C[O-] [propylammonium formate]"
  MEASUREMENT_NAME: "refractive index"
  REPORTED_MEASUREMENT: 1.4372
- MOLECULE: "O=C[O-].[NH3+]CCCO [3-hydroxypropylammonium formate]"
  MEASUREMENT_NAME: "refractive index"
  REPORTED_MEASUREMENT: 1.4655

Could you now consider this next molecule?
Which refractive index is listed for CC(=O)[O-].CCC[NH3+] [propylammonium acetate] ?
1.4356

---

# STUDY_CONDITIONS: 303.15 K, Ring tensiometer
MEASUREMENT_NAME: surface tension liquid-gas (mN/m)
// note: answer is a bare numeric in mN/m

Sample answers from the record:
- COMPOUND: "O=C[O-].[NH3+]CCCO [3-hydroxypropylammonium formate]"
  surface tension liquid-gas (mN/m): 55.9
- COMPOUND: "O=C([O-])C(F)(F)F.[NH3+]CCCO [3-hydroxypropylammonium trifluoroacetate]"
  surface tension liquid-gas (mN/m): 37.4
- COMPOUND: "CCC[NH3+].O=C[O-] [propylammonium formate]"
  surface tension liquid-gas (mN/m): 37
- COMPOUND: "CC(=O)[O-].[NH3+]CCCO [3-hydroxypropylammonium acetate]"
  surface tension liquid-gas (mN/m): 47

Could you now consider this next compound?
Which surface tension liquid-gas is listed for CC(=O)[O-].CCC[NH3+] [propylammonium acetate] ?
32.7

---

# STUDY_CONDITIONS: 313.15 K, Ring tensiometer
MEASUREMENT_NAME: surface tension liquid-gas (mN/m)
// note: answer is a bare numeric in mN/m

Sample answers from the record:
- COMPOUND: "CCC[NH3+].O=C[O-] [propylammonium formate]"
  surface tension liquid-gas, mN/m: 36.2
- COMPOUND: "CC(=O)[O-].CCC[NH3+] [propylammonium acetate]"
  surface tension liquid-gas, mN/m: 31.8
- COMPOUND: "CC(=O)[O-].[NH3+]CCCO [3-hydroxypropylammonium acetate]"
  surface tension liquid-gas, mN/m: 46

Which surface tension liquid-gas is listed for O=C[O-].[NH3+]CCCO [3-hydroxypropylammonium formate] ?
54.9

Which surface tension liquid-gas is listed for O=C([O-])C(F)(F)F.[NH3+]CCCO [3-hydroxypropylammonium trifluoroacetate] ?
36.5

---

# STUDY_CONDITIONS: 323.15 K, Ring tensiometer
// no strictly below 40 mN/m in surface tension liquid-gas; yes otherwise

Answered cases to consult:
- COMPOUND: "CCC[NH3+].O=C[O-] [propylammonium formate]"
  ASSIGNED_CLASS: "no"
- COMPOUND: "O=C[O-].[NH3+]CCCO [3-hydroxypropylammonium formate]"
  ASSIGNED_CLASS: "yes"
- COMPOUND: "CC(=O)[O-].CCC[NH3+] [propylammonium acetate]"
  ASSIGNED_CLASS: "no"

Has CC(=O)[O-].[NH3+]CCCO [3-hydroxypropylammonium acetate] a recorded surface tension liquid-gas greater than or equal to 40 mN/m?
yes

Has O=C([O-])C(F)(F)F.[NH3+]CCCO [3-hydroxypropylammonium trifluoroacetate] a recorded surface tension liquid-gas greater than or equal to 40 mN/m?
no
